Hey, just so you know, these numbers are from ChEMBL document CHEMBL1201862.

tested on: SNB-19; assay: NCI tumour cell line growth inhibition, 48 h
Activity calls are given as the source filed them. Rule as the data show it: active = GI50 up to about 1.1 µM and inactive = higher.
Labels: 1.0 = active, 0.0 = inactive

| compound | target-entity | classification |
| --- | --- | --- |
| Cc1ccc(-c2c(C#N)c(-c3ccc(Cl)cc3)c(C#N)c(=O)n2NS(=O)(=O)c2ccccc2)cc1 | SNB-19 | 0.0 |
| COc1ccc(C2CC(C)(O)Oc3cc4c(cc32)OCO4)cc1 (centres undefined) | SNB-19 | 0.0 |
| COc1ccc(-c2ccccc2)c(N/N=C2\CCCNC2=O)c1 | SNB-19 | 0.0 |
| C[C@H]1[C@H](N2CCCC2)O[Si](C(C)(C)C)(C(C)(C)C)[C@@H]1C | SNB-19 | 1.0 |
| O=C1c2ccccc2C(=O)c2c1ccc(C1C(=O)c3ccccc3C1=O)c2-c1c(C2C(=O)c3ccccc3C2=O)ccc2c1C(=O)c1ccccc1C2=O | SNB-19 | 0.0 |
| O=C(CCc1nnc2s/c(=C\c3ccccc3Cl)c(=O)n12)Nc1cc(Cl)ccc1Cl | SNB-19 | 0.0 |
| CCNCC(O)c1ccc(N)c([N+](=O)[O-])c1 (centres undefined) | SNB-19 | 0.0 |
| O=S1(=O)C(=C(c2ccccc2)c2ccccc2)S(=O)(=O)c2ccccc21 | SNB-19 | 0.0 |
| CC1(C)Oc2ccccc2N2O[C@@H]3C(=O)N(c4ccccc4)C(=O)[C@@H]3C21c1ccccc1 (some centres undefined) | SNB-19 | 0.0 |
| O=C1C=C(C2=C(C3=CC(=O)c4ccccc4C3=O)C(=O)c3ccccc3C2=O)C(=O)c2ccccc21 | SNB-19 | 0.0 |
| CC(=O)Nc1ccc(C2C(C(=O)Nc3ccccc3)=C(C)NC(C)=C2C(=O)Nc2ccccc2)cc1 | SNB-19 | 0.0 |
| COC(=O)C1=C(C)N2[C@H](C(=O)O)CS[C@@]2(C)[C@H](C(=O)OC)[C@H]1c1cccc([N+](=O)[O-])c1 | SNB-19 | 0.0 |
| CCc1nc(N)nc(N)c1-c1ccc(Cl)c(/N=N/N(C)C)c1 | SNB-19 | 0.0 |
| CC1CC(c2ccc(Cl)c(Cl)c2)=Nc2ccccc2S1 (centres undefined) | SNB-19 | 0.0 |
| NS(=O)(=O)c1nnc(NS(=O)(=O)c2cccc3cccnc23)s1 | SNB-19 | 0.0 |
| O=C(NCCN(CCNC(=O)c1cccc(=O)n1O)CCNC(=O)c1cccc(=O)n1O)c1cccc(=O)n1O | SNB-19 | 0.0 |
| COc1ccc(NC(C)=O)cc1C1CCC(=O)N1 (centres undefined) | SNB-19 | 0.0 |
| NC1CC(=O)c2c(Cl)sc(Cl)c21 (centres undefined) | SNB-19 | 0.0 |
| COC(=O)N/N=C(\c1nc2ccc(Cl)cc2nc1O)C(O)c1ccc([N+](=O)[O-])cc1 (centres undefined) | SNB-19 | 0.0 |
| CCC1CN2CCc3cc(OC)c(OC)cc3C2CC1CC1c2cc(OC)c(OC)cc2CCN1C(=O)C(Cc1c[nH]c2ccccc12)NC(=O)OC(C)(C)C (centres undefined) | SNB-19 | 0.0 |
| CSC(=O)C[C@@]12O[C@@H]([C@@H](C)C3CCC4[C@@H]5C(O)CC6=CC(=O)C=C[C@]6(C)C5CC[C@@]43C)C[C@](C)(O1)C(C)(C)O2 (some centres undefined) | SNB-19 | 0.0 |
| COc1ccc2[nH]c3c(c2c1)[C@H]1CCC(C(C)(C)C)C[C@H]1[C@H]1C(=O)N(c2ccccc2)C(=O)[C@@H]31 (some centres undefined) | SNB-19 | 0.0 |
| Nc1nc(N)c2cc(-c3cc4ccccc4[nH]3)ccc2n1 | SNB-19 | 0.0 |
| COc1ccc(-c2cc(O)c3cc(Cl)ccc3n2)cc1 | SNB-19 | 0.0 |
